- Target Or Test System: Adenosine receptor A1 (Homo sapiens)
- Run Description: Activity at human recombinant adenosine A1 receptor expressed in CHO cells assessed as inhibition of forskolin-stimulated cAMP accumulation in presence of CPA at 0.1 uM relative to control
- Assay type: functional, cell-based
- Design: scale not given: the % may be the effect or the level left
// Activity lookup, one value per entry
Kindly answer with a numeric value in %, unit omitted.

As a guide, the following entries are already answered.
{"columns": ["Substance Smiles", "Activity / %"],
 "data": [
  ["Nc1sc2cnccc2c1C(=O)c1ccc(Br)cc1", 89],
  ["Cc1sc(N)c(C(=O)c2cccc(C(F)(F)F)c2)c1C", 93],
  ["Nc1sc2cnccc2c1C(=O)c1cccc(C(F)(F)F)c1", 95]
]}

Req: Recorded Activity of Nc1sc2cnccc2c1C(=O)c1ccc(Cl)c(Cl)c1 , please.
Resp: 108

Req: Field entry: COc1ccc(C(=O)c2c(N)sc3cnccc23)cc1
Resp: 97

Req: Field entry: Cc1ccc(C(=O)c2c(N)sc3cnccc23)cc1
Resp: 107
